Assay: Compound solubility in water
Type: physicochemical
Readout: solubility (µg/mL)

                                   molecule     readout  obs_value
0  COCc1cc(C)nc2c(C(=O)N[C@H]3CC[C@H](OCC(C)(C)C)CC3)ccn12 [IV-2]  solubility        4.2
1  Cc1cc(C)n2ccc(C(=O)NC(CC(C)C)c3cccnc3)c2n1 (stereo not drawn) [IV-52]  solubility       17.3
2  Cc1cc(C2CCOCC2)nc2c(C(=O)NC(C)(C)C3CC3)ccn12 [III-36]  solubility       21.3
3  CCC(NC(=O)c1ccn2c(C)cc(C)nc12)c1cc(C)ccn1 (stereo not drawn) [IV-54]  solubility       23.2

A = COCc1cc(C(F)F)n2ccc(C(=O)NC(C)(C)C3CC3)c2n1 [III-4]
B = Cc1c(-c2ccc(F)cc2)cnc2c(C(=O)N[C@@H](C)C3CC3)ccn12 [III-51]
C = COCc1cc(C)n2ccc(C(=O)N[C@H]3CC[C@H](OCC(C)(C)C)CC3)c2n1 [IV-1]
D = Cc1c2c(nc3c(C(=O)N[C@H]4CC[C@H](OC(C)(C)C)CC4)ccn13)CCC2 [III-71]
E = Cc1cc(Cl)nc2c(C(=O)NC(C)(C)C3CC3)ccn12 [III-11]
Qu. // smallest solubility at index 0, largest at the end Rank them, then answer with their labels in that order.
Ans. B, E, C, D, A
(B: 0.1 µg/mL, E: 1.1 µg/mL, C: 2.5 µg/mL, D: 8 µg/mL, A: 17 µg/mL)

---

Assay: Compound solubility in water
Type: physicochemical
Readout: solubility (µg/mL)

The cases that follow already have their solubility on record.
                                   compound  obs_value
0   Cc1cc(C)n2ccc(C(=O)N[C@@H](C)C3CC3)c2n1       21.7
1  Cc1cc(C)n2ccc(C(=O)NC(CC(C)C)C3CC3)c2n1 (stereo not drawn)       10.9
2  Cc1cc(NC2CC3CCC(C2)O3)nc2c(C(=O)NC(C)(C)C3CC3)ccn12 (stereo not drawn)       12.3

P = Cc1cc(-c2cocn2)nc2c(C(=O)N[C@H]3CCCc4ccccc43)ccn12
Q = CCc1cc(C)nc2c(C(=O)N[C@H]3CC[C@H](OC(C)(C)C)CC3)ccn12
Qu. Of P and Q , which carries the smaller reported solubility figure? Returns: label corresponding to the selected item.
Ans. P

---

Tested target: glucocerebrosidase (Gcase) (Homo sapiens)
Sequence (P04062 40-536): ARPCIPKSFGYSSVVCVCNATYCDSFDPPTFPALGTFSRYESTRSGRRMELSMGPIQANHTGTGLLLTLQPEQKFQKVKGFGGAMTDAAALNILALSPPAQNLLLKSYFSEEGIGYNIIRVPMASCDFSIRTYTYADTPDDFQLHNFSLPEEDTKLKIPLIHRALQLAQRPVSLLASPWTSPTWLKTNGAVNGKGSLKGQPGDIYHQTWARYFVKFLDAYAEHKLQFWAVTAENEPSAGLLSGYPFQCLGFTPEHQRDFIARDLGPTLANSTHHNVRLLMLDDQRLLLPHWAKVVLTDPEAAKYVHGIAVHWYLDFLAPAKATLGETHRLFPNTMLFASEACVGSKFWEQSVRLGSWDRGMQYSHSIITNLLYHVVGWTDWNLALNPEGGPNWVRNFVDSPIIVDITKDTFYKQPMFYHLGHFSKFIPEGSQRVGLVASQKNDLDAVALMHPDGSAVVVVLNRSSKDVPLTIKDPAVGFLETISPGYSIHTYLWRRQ
Assay: Glucocerebrosidase (Gcase) activation assay, 4-methylumbelliferyl-beta-D-glucopyranoside substrate, fluorescence
Type: biochemical
Condition notes: 0.25 h, pH 4.7, test compound at 0.1 μM, 10 nM GCase, 100 nM saposin C, read-out: Percent Gcase Activation 0.1 μM Test Compound
Readout: activation at 0.1 µM

                                   molecule  obs_value
0  CCc1cc(C)nc2c(C(=O)N[C@H]3CC[C@H](OC(C)(C)C)CC3)ccn12 [IV-5]  10 to 20%
1  Cc1cc(-c2cccnc2)nc2c(C(=O)NC(C)(C)C3CC3)ccn12 [III-41]      > 20%
2  Cc1cc(C)n2ccc(C(=O)NC(CC3CCC3)c3ccccc3)c2n1 (centres unmarked) [IV-41]      > 20%
3  CCC(NC(=O)c1ccn2c(C)cc(C)nc12)c1cc(C)ccn1 (centres unmarked) [IV-54]      < 10%
4  Cc1cc(C)n2ccc(C(=O)NC(C)(C)c3cccc(Cl)c3)c2n1 [IV-96]      > 20%

Qu. Endpoint output: activation at 0.1 µM of Cc1cc(C)n2ccc(C(=O)NC(C)C3CCCC3)c2n1 (centres unmarked) [III-69] . Value?
Ans. 10 to 20%

Qu. Endpoint output: activation at 0.1 µM of Cc1cc(-c2cocn2)nc2c(C(=O)N[C@H]3CCCc4ccccc43)ccn12 [III-28] . Value?
Ans. < 10%
